Listed below: IC50 values for each entry.
targetOfAssay: GIPR (CHO-K1-hGIPR cells) (Homo sapiens, UniProt P48546)
Construct: host or cells: CHO-K1
Sequence (P48546 22-466): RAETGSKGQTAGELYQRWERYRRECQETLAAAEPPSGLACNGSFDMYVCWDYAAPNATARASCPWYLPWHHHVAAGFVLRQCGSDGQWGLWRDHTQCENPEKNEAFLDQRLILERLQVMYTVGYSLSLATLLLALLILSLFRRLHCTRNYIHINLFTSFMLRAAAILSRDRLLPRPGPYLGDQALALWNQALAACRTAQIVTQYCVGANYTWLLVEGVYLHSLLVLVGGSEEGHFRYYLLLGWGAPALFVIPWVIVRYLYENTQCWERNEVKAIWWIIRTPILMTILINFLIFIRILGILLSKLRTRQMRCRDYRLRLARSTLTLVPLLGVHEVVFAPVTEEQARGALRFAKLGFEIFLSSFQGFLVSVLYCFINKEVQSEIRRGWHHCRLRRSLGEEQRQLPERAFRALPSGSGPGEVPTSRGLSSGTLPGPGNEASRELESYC
methodNotes: FACS binding assay
runParameters: competition with 20 nM GIP-057, 4° C. for 1 hour, read-out: pIC50 Category (converted)
*1 amine or outer side, *2 acyl side, *3 side chain or, on linkers, in order; H or OH if unused. Where a SMILES comes first, the peptide text is derived from it. Bridges are numbered along the chain shown (N, C = ends). [ ]: non-standard residue; d: D form. The star is where a group is joined. X3 = O=C(O)CN1CCN(CC(=O)O)CCN(CC(=O)NCCCOCCOCCOCCCN*)CCN(CC(=O)O)CC1; Trp(5-Cl) = N[C@@H](Cc1c[nH]c2ccc(Cl)cc12)C(=O)O; Pyridine(2,6-diCH2) = c1cc(C[*:1])nc(C[*:2])c1; Trp(5-F) = N[C@@H](Cc1c[nH]c2ccc(F)cc12)C(=O)O; Phe(3-Cl) = N[C@@H](Cc1cccc(Cl)c1)C(=O)O; 1Nal = N[C@@H](Cc1cccc2ccccc12)C(=O)O; X23 = O=C(c1cccc(CSCCN[*:1])c1)[*:2]; mXylylene = c1cc(C[*:1])cc(C[*:2])c1; Hyp = O=C(O)[C@@H]1C[C@@H](O)CN1; Suc = O=C(CCC(=O)[*:2])[*:1]; Thp = NC1(C(=O)O)CCOCC1; Dap = NC[C@H](N)C(=O)O; Aib = CC(C)(N)C(=O)O

Input: Param readout= IC50; system= GIPR (CHO-K1-hGIPR cells) (Homo sapiens, UniProt P48546); entry= CC[C@H](C)[C@@H]1NC(=O)[C@H](CC(C)C)NC(=O)C2(CCOCC2)NC(=O)[C@@H](NC(=O)[C@@H](CC(C)C)NC(=O)[C@H](CCC(=O)O)NC(=O)[C@@H]2C[C@@H](O)CN2C(=O)[C@H](Cc2c[nH]c3ccc(Cl)cc23)NC(=O)[C@H](Cc2c[nH]c3ccc(F)cc23)NC(=O)[C@H](CC(=O)O)NC(C)=O)CSCc2cccc(n2)CSC[C@@H](C(N)=O)NC1=O [GIP-382] (Ac-D[Trp(5-F)][Trp(5-Cl)][Hyp]E[dL]C[Thp]LIC-NH2; linker 7-11 via Pyridine(2,6-diCH2)) ; returns value.
Output: < 10 nM

Input: Param item: CC[C@H](C)[C@@H]1NC(=O)[C@H](CC(C)C)NC(=O)C2(CCOCC2)NC(=O)[C@@H](NC(=O)[C@@H](CC(C)C)NC(=O)[C@H](CCC(=O)O)NC(=O)[C@@H]2C[C@@H](O)CN2C(=O)[C@H](Cc2c[nH]c3ccc(Cl)cc23)NC(=O)[C@H](Cc2cccc3ccccc23)NC(=O)[C@H](CC(=O)O)NC(C)=O)CSCc2cccc(n2)CSC[C@@H](C(N)=O)NC1=O [GIP-380] (Ac-D[1Nal][Trp(5-Cl)][Hyp]E[dL]C[Thp]LIC-NH2; linker 7-11 via Pyridine(2,6-diCH2))
Output: < 10 nM

Input: Param item: CC[C@H](C)[C@@H]1NC(=O)[C@H](CC(C)C)NC(=O)[C@H](C)NC(=O)[C@@H](NC(=O)[C@H](CC(C)C)NC(=O)[C@H](CCC(=O)O)NC(=O)[C@@H]2CCCN2C(=O)[C@H](Cc2c[nH]c3ccccc23)NC(C)=O)CSCc2cccc(c2)CSC[C@@H](C(N)=O)NC1=O [GIP-325] (Ac-WPELCALIC-NH2; linker 5-9 via mXylylene)
Output: > 1000 nM

Input: Param item: CC[C@H](C)[C@@H]1NC(=O)[C@H](CC(C)C)NC(=O)C(C)(C)NC(=O)[C@@H](NC(=O)[C@@H](CC(C)C)NC(=O)[C@H](CCC(=O)O)NC(=O)[C@@H]2CCCN2C(=O)[C@H](Cc2c[nH]c3ccc(Cl)cc23)NC(=O)[C@H](Cc2c[nH]c3ccccc23)NC(=O)[C@H](CC(=O)O)NC(=O)CCC(=O)NCCCOCCOCCOCCCNC(=O)CN2CCN(CC(=O)O)CCN(CC(=O)O)CCN(CC(=O)O)CC2)CNC(=O)c2cccc(c2)CSCCNC1=O [GIP-358] ({X3-Suc}-DW[Trp(5-Cl)]PE[dL][Dap][Aib]LI[X23]; lactam 7-C)
Output: < 10 nM

Input: Param item: CC[C@H](C)[C@@H]1NC(=O)[C@H](CC(C)C)NC(=O)C(C)(C)NC(=O)[C@@H](NC(=O)[C@H](CCCCN)NC(=O)[C@H](CCC(=O)O)NC(=O)[C@@H]2CCCN2C(=O)[C@H](Cc2cccc3ccccc23)NC(=O)[C@H](Cc2c[nH]c3ccccc23)NC(=O)[C@H](CC(=O)O)NC(C)=O)CSCc2cccc(c2)CSC[C@@H](C(N)=O)NC1=O [GIP-345] (Ac-DW[1Nal]PEKC[Aib]LIC-NH2; linker 7-11 via mXylylene)
Output: > 1000 nM

Input: Param item: CC[C@H](C)[C@@H]1NC(=O)[C@H](CC(C)C)NC(=O)[C@H](C)NC(=O)[C@@H](NC(=O)[C@H](C)NC(=O)[C@H](CCC(=O)O)NC(=O)[C@@H]2CCCN2C(=O)[C@H](Cc2c[nH]c3ccccc23)NC(=O)[C@H](Cc2c[nH]c3ccccc23)NC(=O)[C@H](CC(=O)O)NC(=O)[C@H](Cc2ccc(O)cc2)NC(=O)[C@@H](N)CCSC)CSCc2cccc(c2)CSC[C@@H](C(N)=O)NC1=O [GIP-336] (H-MYDWWPEACALIC-NH2; linker 9-13 via mXylylene)
Output: > 1000 nM

Input: Param item: CC[C@H](C)[C@@H]1NC(=O)[C@H](CC(C)C)NC(=O)[C@H](C)NC(=O)[C@@H](NC(=O)[C@H](CC(C)C)NC(=O)[C@H](CCC(=O)O)NC(=O)[C@@H]2CCCN2C(=O)[C@H](Cc2c[nH]c3ccccc23)NC(=O)[C@H](Cc2c[nH]c3ccccc23)NC(=O)CCC(=O)O)CSCc2cccc(c2)CSC[C@@H](C(N)=O)NC1=O [GIP-255] (Suc-WWPELCALIC-NH2; linker 6-10 via mXylylene)
Output: 10 to 79.4 nM

Input: Param item: CC[C@H](C)[C@@H]1NC(=O)[C@H](CC(C)C)NC(=O)C2(CCOCC2)NC(=O)[C@@H](NC(=O)[C@@H](CC(C)C)NC(=O)[C@H](Cc2ccccc2)NC(=O)[C@@H]2C[C@@H](O)CN2C(=O)[C@H](Cc2c[nH]c3ccc(Cl)cc23)NC(=O)[C@H](Cc2c[nH]c3ccccc23)NC(=O)[C@H](CC(=O)O)NC(C)=O)CSCc2cccc(n2)CSC[C@@H](C(N)=O)NC1=O [GIP-396] (Ac-DW[Trp(5-Cl)][Hyp]F[dL]C[Thp]LIC-NH2; linker 7-11 via Pyridine(2,6-diCH2))
Output: 10 to 79.4 nM

Input: Param item: CC[C@H](C)[C@@H]1NC(=O)[C@H](CC(C)C)NC(=O)C2(CCOCC2)NC(=O)[C@@H](NC(=O)[C@@H](CC(C)C)NC(=O)[C@H](CCC(=O)O)NC(=O)[C@@H]2C[C@@H](O)CN2C(=O)[C@H](Cc2cccc(Cl)c2)NC(=O)[C@H](Cc2c[nH]c3ccccc23)NC(=O)[C@H](CC(=O)O)NC(C)=O)CSCc2cccc(n2)CSC[C@@H](C(N)=O)NC1=O [GIP-320] (Ac-DW[Phe(3-Cl)][Hyp]E[dL]C[Thp]LIC-NH2; linker 7-11 via Pyridine(2,6-diCH2))
Output: 100 to 794 nM
